variants and their reported protein stability index
B1: NFE2L1 (parent)
chain: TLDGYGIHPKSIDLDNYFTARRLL

Variants of: B1
Assay: protein stability index of a GFP-peptide fusion (GPS, HEK-293T) (PSI 1-6); higher = more stable;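 note: lentivirally expressed fusions sorted by FACS into six bins by GFP to DsRed ratio, PSI derived from sequencing read proportions per bin multiplied by bin number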
Conditions: c terminus: a fixed tail appended

[
  {
    "Mutation list": "F18C",
    "protein stability index": 2.03
  },
  {
    "Mutation list": "H8D",
    "protein stability index": 2.02
  },
  {
    "Mutation list": "L2F",
    "protein stability index": 1.97
  },
  {
    "Mutation list": "N16P",
    "protein stability index": 1.98
  },
  {
    "Mutation list": "P9M",
    "protein stability index": 2.05
  },
  {
    "Mutation list": "Y5S",
    "protein stability index": 2.05
  },
  {
    "Mutation list": "S11P",
    "protein stability index": 2.04
  },
  {
    "Mutation list": "P9E",
    "protein stability index": 1.97
  }
]
